Data origin, for the record: patent US20260176267A1

Reported pIC50 values, human DGAT2 (hDGAT2) (Homo sapiens, UniProt Q96PD7).
pIC50: −log10 of the molar value.
experimentalReadout: pIC50

CCc1cnc(Oc2ccc3nc(C(=O)NC4(C)CS(=O)(=O)C4)c(C)n3c2)c(OCC(F)(F)F)c1: 8.17
Cc1c(C(=O)NC2(C)CCS(=O)(=O)CC2)nc2ccc(OCc3ccccc3OC(F)F)cn12: 8.19
CC(F)(F)COc1cc(F)cnc1Oc1cn2cc(C(=O)NC3(C)CCS(=O)(=O)CC3)nc2cc1F: 8.06
Cc1cnc(Oc2ccc3nc(C(=O)NC4(C)CCS(=O)(=O)CC4)c(C)n3c2)c(OCC(F)(F)F)c1: 8.05
Cc1cc2nc(C(=O)NC3(C)CCS(=O)(=O)CC3)cn2cc1Oc1ncc(Cl)cc1OCC1(F)CC1: 7.89

1: Cc1cc2nc(C(=O)NC3(C)CCS(=O)(=O)CC3)c(C)n2nc1Oc1ncc(F)cc1OCC(F)(F)F
2: Cc1c(C(=O)NC2(C)CCS(=O)(=O)CC2)nc2ccc(Oc3nccnc3OCC(F)(F)F)cn12
pIC50 comparison. Which is larger, 1 or 2 ? Lab note: record the label of whichever item you select. 2
